- testDetails: Plasma pharmacokinetics of parenterally administered dutogliptin
- Assay type: in vivo, human
- cond: human, plasma, sc, 120 mg
attributeMeasured: AUC
Remember to put the unit after the number in your answer.

Returns the measured AUC for the input molecule. Input: "O=C(CN[C@@H]1CCNC1)N1CCC[C@H]1B(O)O"
17200 ng·h/mL

###

- testDetails: Plasma pharmacokinetics of parenterally administered dutogliptin
- Format: in vivo, human
- cond: human, plasma, sc, 90 mg
attributeMeasured: bioavailability (%)
Numeric only. Scale: %

Returns the measured bioavailability for the input compound. Input: "O=C(CN[C@@H]1CCNC1)N1CCC[C@H]1B(O)O"
96

###

- testDetails: Plasma pharmacokinetics of parenterally administered dutogliptin
- Assay type: in vivo, human
- cond: human, plasma, sc, 30 mg
attributeMeasured: Tmax (min)
Numeric only. Scale: min

Returns the measured Tmax for the input molecule. Input: O=C(CN[C@@H]1CCNC1)N1CCC[C@H]1B(O)O [dutogliptin]
42

###

- testDetails: Plasma pharmacokinetics of parenterally administered dutogliptin
- Assay type: in vivo, human
- cond: human, plasma, sc, 60 mg
attributeMeasured: AUC (ng·h/mL)
Numeric only. Scale: ng·h/mL

Returns the measured AUC for the input compound. Input: "O=C(CN[C@@H]1CCNC1)N1CCC[C@H]1B(O)O"
9060

###

- testDetails: Plasma pharmacokinetics of parenterally administered dutogliptin
- Assay type: in vivo, human
- cond: human, plasma, sc, 90 mg
attributeMeasured: AUC(0-inf)
Remember to put the unit after the number in your answer.

Returns the measured AUC(0-inf) for the input molecule. Input: "O=C(CN[C@@H]1CCNC1)N1CCC[C@H]1B(O)O"
12200 ng·h/mL

###

- testDetails: Plasma pharmacokinetics of parenterally administered dutogliptin
- Format: in vivo, human
- cond: human, plasma, sc, 120 mg
attributeMeasured: bioavailability

Returns the measured bioavailability for the input compound. Input: O=C(CN[C@@H]1CCNC1)N1CCC[C@H]1B(O)O [dutogliptin]
95%
